Catalogue of molecules with associated Population Tubulin-Different-Phenotype (%)
# Tested on: U2OS
# METHOD: Multiplex assay against U2OS
# Format: toxicity, cell-based
# RUN_PARAMETERS: human, 24 h, 1 µM, compound concentration 1 uM, replicate 2
MEASURED_ENDPOINT: Population Tubulin-Different-Phenotype (%)

COc1cc(NC(=O)CCN2CCC(OC(=O)Nc3ccccc3-c3ccccc3)CC2)c(Cl)cc1CNC[C@H](O)c1ccc(O)c2[nH]c(=O)ccc12 :: 2
COc1c(C)cc(NC(=O)c2nn(Cc3ccc(F)cc3)c3c2CN(C(=O)c2ccc[nH]2)C[C@]3(C)C(N)=O)cc1C :: 6
CNC[C@H](O)c1ccc(O)c(O)c1 [EPINEPHRINE] :: 1
CC(=O)NCCc1c(Cc2ccccc2)[nH]c2ccccc12 :: 4
C[C@@H]1C[C@H]2[C@@H]3CCC4=CC(=O)C=C[C@]4(C)[C@@]3(F)[C@@H](O)C[C@]2(C)[C@@]1(O)C(=O)CO :: 4
Cc1ccc(C(C)(O)c2nc3ccccc3s2)c(C)c1 (stereo not drawn) :: 4
O=C(O)c1cc2ccccc2c(Cc2c(O)c(C(=O)O)cc3ccccc23)c1O :: 7
Cc1ccc(F)cc1C(=O)Nc1ccc(C(=O)N2Cc3cccn3Cc3ccccc32)c(Cl)c1 :: 7
